# Assayed Target: ATM (Homo sapiens, UniProt Q13315)
# Construct: detecting phosphorylation of Chk2 in a human non-small cell lung cancer cell line NCI-H460 (ATCC company); host or cells: NCI-H460 human non-small cell lung cancer cells
# Sequence (Q13315 whole entry): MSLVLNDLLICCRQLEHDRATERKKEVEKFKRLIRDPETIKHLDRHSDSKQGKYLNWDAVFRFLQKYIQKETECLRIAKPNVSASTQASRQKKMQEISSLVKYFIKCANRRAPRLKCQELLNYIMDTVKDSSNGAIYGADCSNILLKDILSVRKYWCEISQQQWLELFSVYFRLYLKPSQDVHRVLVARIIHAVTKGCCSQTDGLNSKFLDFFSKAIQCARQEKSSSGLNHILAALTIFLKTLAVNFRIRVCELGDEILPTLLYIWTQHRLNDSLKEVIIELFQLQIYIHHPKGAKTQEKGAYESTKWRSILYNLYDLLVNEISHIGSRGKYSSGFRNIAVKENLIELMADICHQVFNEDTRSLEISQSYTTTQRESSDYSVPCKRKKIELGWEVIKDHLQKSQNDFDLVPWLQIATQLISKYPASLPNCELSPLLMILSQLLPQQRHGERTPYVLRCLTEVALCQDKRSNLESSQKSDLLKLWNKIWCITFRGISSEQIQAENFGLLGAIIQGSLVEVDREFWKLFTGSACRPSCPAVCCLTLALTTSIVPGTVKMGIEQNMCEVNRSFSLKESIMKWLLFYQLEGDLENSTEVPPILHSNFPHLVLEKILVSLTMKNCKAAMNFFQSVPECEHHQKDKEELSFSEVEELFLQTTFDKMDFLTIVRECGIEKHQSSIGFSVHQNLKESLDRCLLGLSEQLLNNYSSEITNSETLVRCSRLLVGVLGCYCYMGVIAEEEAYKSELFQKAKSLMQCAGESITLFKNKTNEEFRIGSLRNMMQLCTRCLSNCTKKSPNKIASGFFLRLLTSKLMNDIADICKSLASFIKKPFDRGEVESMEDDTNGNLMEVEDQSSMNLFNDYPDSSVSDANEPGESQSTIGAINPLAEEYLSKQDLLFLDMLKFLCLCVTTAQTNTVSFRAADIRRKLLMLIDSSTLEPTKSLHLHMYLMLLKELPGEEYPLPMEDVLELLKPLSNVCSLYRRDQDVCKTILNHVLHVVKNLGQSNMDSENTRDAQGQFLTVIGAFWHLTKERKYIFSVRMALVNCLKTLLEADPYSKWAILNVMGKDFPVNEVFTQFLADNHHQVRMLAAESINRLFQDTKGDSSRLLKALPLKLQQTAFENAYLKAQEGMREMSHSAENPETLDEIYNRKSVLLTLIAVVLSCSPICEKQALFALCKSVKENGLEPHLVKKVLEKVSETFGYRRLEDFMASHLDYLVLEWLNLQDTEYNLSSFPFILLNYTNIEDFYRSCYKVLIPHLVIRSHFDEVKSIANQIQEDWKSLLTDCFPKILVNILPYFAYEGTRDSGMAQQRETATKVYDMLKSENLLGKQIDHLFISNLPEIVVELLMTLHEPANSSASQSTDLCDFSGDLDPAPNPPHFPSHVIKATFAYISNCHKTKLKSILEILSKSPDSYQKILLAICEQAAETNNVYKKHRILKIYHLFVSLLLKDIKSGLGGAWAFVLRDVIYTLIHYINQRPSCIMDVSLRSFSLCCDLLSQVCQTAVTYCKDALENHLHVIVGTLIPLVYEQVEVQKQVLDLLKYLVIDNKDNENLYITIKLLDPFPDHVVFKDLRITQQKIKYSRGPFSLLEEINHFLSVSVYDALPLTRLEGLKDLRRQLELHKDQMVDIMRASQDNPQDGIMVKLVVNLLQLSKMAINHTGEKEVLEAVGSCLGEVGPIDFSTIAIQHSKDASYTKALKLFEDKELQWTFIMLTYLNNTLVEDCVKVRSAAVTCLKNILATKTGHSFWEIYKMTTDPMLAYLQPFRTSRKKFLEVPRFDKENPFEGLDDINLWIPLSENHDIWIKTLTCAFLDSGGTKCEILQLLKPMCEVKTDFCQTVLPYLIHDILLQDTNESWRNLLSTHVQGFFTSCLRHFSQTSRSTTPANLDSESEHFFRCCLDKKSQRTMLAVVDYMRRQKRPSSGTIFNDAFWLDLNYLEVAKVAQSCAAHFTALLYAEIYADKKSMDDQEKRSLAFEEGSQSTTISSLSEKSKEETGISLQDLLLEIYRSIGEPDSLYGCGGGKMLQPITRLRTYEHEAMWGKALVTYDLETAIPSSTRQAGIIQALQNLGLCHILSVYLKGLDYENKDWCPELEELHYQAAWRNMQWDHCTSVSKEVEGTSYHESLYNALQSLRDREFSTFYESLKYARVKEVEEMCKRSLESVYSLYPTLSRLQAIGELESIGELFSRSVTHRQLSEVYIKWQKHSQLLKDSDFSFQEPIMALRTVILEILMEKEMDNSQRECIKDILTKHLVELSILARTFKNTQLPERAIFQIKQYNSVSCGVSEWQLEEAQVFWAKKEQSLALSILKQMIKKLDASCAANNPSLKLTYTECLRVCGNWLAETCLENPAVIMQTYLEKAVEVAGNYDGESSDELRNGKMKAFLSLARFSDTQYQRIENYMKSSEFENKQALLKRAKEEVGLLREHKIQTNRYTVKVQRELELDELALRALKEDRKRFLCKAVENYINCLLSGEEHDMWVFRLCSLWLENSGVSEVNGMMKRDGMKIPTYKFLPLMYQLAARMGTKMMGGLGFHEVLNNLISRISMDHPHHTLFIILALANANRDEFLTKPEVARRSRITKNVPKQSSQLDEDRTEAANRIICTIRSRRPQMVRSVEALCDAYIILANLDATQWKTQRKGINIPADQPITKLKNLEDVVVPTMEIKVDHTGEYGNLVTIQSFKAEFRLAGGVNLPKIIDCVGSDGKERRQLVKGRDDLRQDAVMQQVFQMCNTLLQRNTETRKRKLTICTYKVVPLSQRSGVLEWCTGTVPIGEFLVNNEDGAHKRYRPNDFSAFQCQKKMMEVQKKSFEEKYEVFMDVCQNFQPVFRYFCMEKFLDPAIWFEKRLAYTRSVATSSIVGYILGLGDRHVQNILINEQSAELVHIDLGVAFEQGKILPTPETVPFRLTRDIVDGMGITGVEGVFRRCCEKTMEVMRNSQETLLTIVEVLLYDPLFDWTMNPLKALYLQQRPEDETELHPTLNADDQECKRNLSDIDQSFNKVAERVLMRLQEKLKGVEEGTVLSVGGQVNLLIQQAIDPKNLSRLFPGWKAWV
# Assay Notes: ATM inhibition test (phosphorylation of Chk2 generated by ionizing radiation, AlphaScreen SureFire)
# Format: cell-based
# Run Parameters: phosphorylated Chk2 in NCI-H460 cells, ionizing radiation 8Gy, 1 hour after test compound treatment; read-out: ATM inhibitory activity
Measured Quantity: IC50

Notebook entry, ATM (Homo sapiens, UniProt Q13315) assay: IC50 of O=c1cc(N2CCOCC2)cc(-c2cccc3c2Oc2ccc(NCc4cncc(Cl)c4)cc2C3)[nH]1 = ?
< 100 nM

Proceed to O=C(N[C@H]1CC[C@H](Nc2ccc3c(c2)Cc2cccc(-c4cc(N5CCOCC5)cc(=O)[nH]4)c2O3)CC1)OCc1ccccc1
500 to 2000 nM

Proceed to Cc1cncc(CNc2ccc3c(c2)Cc2cccc(-c4cc(N5CCOCC5)cc(=O)[nH]4)c2O3)n1
100 to 500 nM

Proceed to O=c1cc(N2CCOCC2)cc(-c2cccc3c2Oc2ccc(NC4CCNCC4)cc2S3)[nH]1
100 to 500 nM

Proceed to Cc1cnc(C(CCN(C)CCF)Nc2ccc3c(c2)Sc2cccc(-c4cc(N5CCOCC5)cc(=O)[nH]4)c2S3)cn1 (single isomer, unassigned)
< 100 nM

Proceed to O=c1cc(N2CCOCC2)cc(-c2cccc3c2Sc2ccc(NC4CCCN(C5CCOC5)C4)cc2S3)[nH]1 (stereo not drawn)
100 to 500 nM
